conditions: in isopropanol, 288.15 K
value.kind: solubility (mole fraction)
API doc: respond with a numeric literal and nothing else, no unit.

// returns reported solubility (mole fraction) for input O=c1ccc2ccccc2o1
0.0108

---

settings: in methanol, 278.15 K
value.kind: solubility (mole fraction)
API doc: respond with a numeric literal and nothing else, no unit.

// returns reported solubility (mole fraction) for input O=c1ccc2ccccc2o1
0.012

---

conditions: in cyclohexane, 293.15 K
value.kind: solubility (mole fraction)
API doc: respond with a numeric literal and nothing else, no unit.

// returns reported solubility (mole fraction) for input O=c1ccc2ccccc2o1
0.00321

---

conditions: in n-hexane, 293.15 K
value.kind: solubility (mole fraction)
API doc: respond with a numeric literal and nothing else, no unit.

// returns reported solubility (mole fraction) for input O=c1ccc2ccccc2o1
0.0024

Hey, just so you know, these numbers are from BigSolDB 2.1.
